Measured log10(IC50) (Sterol O-acyltransferase 2 (Homo sapiens, UniProt O75908))
Annotation: log10 of IC50, nM basis.

Field: example entries. Status: answers known.
[
  {
    "sample smiles": "C[C@@]12CO[C@@H](c3ccccc3)O[C@H]1CC[C@@]1(C)[C@H]2C[C@H](OC(=O)c2ccccc2F)[C@@]2(C)Oc3cc(-c4cccnc4)oc(=O)c3[C@H](O)[C@H]12",
    "numeric readout": 1.70
  },
  {
    "sample smiles": "COc1cccc(C(=O)O[C@H]2C[C@H]3[C@]4(C)CO[C@@H](c5ccccc5)O[C@H]4CC[C@]3(C)[C@H]3[C@@H](O)c4c(cc(-c5cccnc5)oc4=O)O[C@]23C)c1",
    "numeric readout": 1.85
  },
  {
    "sample smiles": "COc1ccccc1[C@@H]1OC[C@@]2(C)[C@@H]3C[C@H](OC(=O)c4ccc(C#N)cc4)[C@@]4(C)Oc5cc(-c6cccnc6)oc(=O)c5[C@H](O)[C@@H]4[C@@]3(C)CC[C@@H]2O1",
    "numeric readout": 1.57
  },
  {
    "sample smiles": "C[C@@]12CO[C@@H](c3ccccc3)O[C@H]1CC[C@@]1(C)[C@H]2C[C@H](OC(=O)c2ccc(C#N)cc2)[C@@]2(C)Oc3cc(-c4cccnc4)oc(=O)c3[C@H](O)[C@H]12",
    "numeric readout": 0.78
  }
]

[ask] Need log10(IC50) of `C[C@@]12CO[C@@H](c3ccccc3)O[C@H]1CC[C@@]1(C)[C@H]2C[C@H](OC(=O)c2ccc(F)cc2)[C@@]2(C)Oc3cc(-c4cccnc4)oc(=O)c3[C@H](O)[C@H]12` , thanks.
[reply] 0.85

[ask] Lookup `Cc1ccccc1[C@@H]1OC[C@@]2(C)[C@@H]3C[C@H](OC(=O)c4ccc(F)cc4)[C@@]4(C)Oc5cc(-c6cccnc6)oc(=O)c5[C@H](O)[C@@H]4[C@@]3(C)CC[C@@H]2O1`
[reply] 1.36

[ask] Lookup `CCCCC(=O)O[C@H]1C[C@H]2[C@]3(C)CO[C@@H](c4ccccc4C)O[C@H]3CC[C@]2(C)[C@H]2[C@@H](O)c3c(cc(-c4cccnc4)oc3=O)O[C@]12C`
[reply] 1.00

[ask] Lookup `Cc1ccccc1[C@@H]1OC[C@@]2(C)[C@@H]3C[C@H](OC(=O)c4ccc(C#N)cc4)[C@@]4(C)Oc5cc(-c6cccnc6)oc(=O)c5[C@H](O)[C@@H]4[C@@]3(C)CC[C@@H]2O1`
[reply] 1.07

[ask] Lookup `Cc1ccc([C@@H]2OC[C@@]3(C)[C@@H]4C[C@H](OC(=O)c5ccc(C#N)cc5)[C@@]5(C)Oc6cc(-c7cccnc7)oc(=O)c6[C@H](O)[C@@H]5[C@@]4(C)CC[C@@H]3O2)c(C)c1`
[reply] 0.82

[ask] Lookup `C[C@@]12CO[C@@H](c3ccccc3F)O[C@H]1CC[C@@]1(C)[C@H]2C[C@H](OC(=O)c2ccc(C#N)cc2)[C@@]2(C)Oc3cc(-c4cccnc4)oc(=O)c3[C@H](O)[C@H]12`
[reply] 0.83

====

Measured pIC50 (Sterol O-acyltransferase 1 (Homo sapiens, UniProt P35610))
Remember the convention: pIC50 equals -log10 of concentration in molar.

Field: example entries. Status: answers known.
[
  {
    "sample smiles": "C[C@@]12CO[C@@H](c3ccccc3)O[C@H]1CC[C@@]1(C)[C@H]2C[C@H](OC(=O)c2ccc(C=O)cc2)[C@@]2(C)Oc3cc(-c4cccnc4)oc(=O)c3[C@H](O)[C@H]12",
    "pIC50": 5.26
  },
  {
    "sample smiles": "C[C@@]12CO[C@@H](c3ccccc3)O[C@H]1CC[C@@]1(C)[C@H]2C[C@H](OC(=O)c2ccc(C#N)cc2)[C@@]2(C)Oc3cc(-c4cccnc4)oc(=O)c3[C@H](O)[C@H]12",
    "pIC50": 5.55
  },
  {
    "sample smiles": "Cc1ccc([C@@H]2OC[C@@]3(C)[C@@H]4C[C@H](OC(=O)c5ccc(C#N)cc5)[C@@]5(C)Oc6cc(-c7cccnc7)oc(=O)c6[C@H](O)[C@@H]5[C@@]4(C)CC[C@@H]3O2)c(C)c1",
    "pIC50": 5.00
  },
  {
    "sample smiles": "C[C@@]12CO[C@@H](c3ccccc3)O[C@H]1CC[C@@]1(C)[C@H]2C[C@H](OC(=O)c2ccc(Br)cc2)[C@@]2(C)Oc3cc(-c4cccnc4)oc(=O)c3[C@H](O)[C@H]12",
    "pIC50": 5.16
  },
  {
    "sample smiles": "CCCCC(=O)O[C@H]1C[C@H]2[C@]3(C)CO[C@@H](c4ccccc4C)O[C@H]3CC[C@]2(C)[C@H]2[C@@H](O)c3c(cc(-c4cccnc4)oc3=O)O[C@]12C",
    "pIC50": 5.49
  }
]

Let us examine a further case.
[ask] Need pIC50 of `COc1cccc(C(=O)O[C@H]2C[C@H]3[C@]4(C)CO[C@@H](c5ccccc5)O[C@H]4CC[C@]3(C)[C@H]3[C@@H](O)c4c(cc(-c5cccnc5)oc4=O)O[C@]23C)c1` , thanks.
[reply] 5.37

====

species on record: Homo sapiens; assay: Selectivity index, ratio of IC50 for ACAT1 (unknown origin) to IC50 for ACAT2 (unknown origin)
outcome measure: Ratio IC50

Field: example entries. Status: answers known.
[
  {
    "sample smiles": "COc1cccc(C(=O)O[C@H]2C[C@H]3[C@]4(C)CO[C@@H](c5ccccc5)O[C@H]4CC[C@]3(C)[C@H]3[C@@H](O)c4c(cc(-c5cccnc5)oc4=O)O[C@]23C)c1",
    "result": 61.4
  },
  {
    "sample smiles": "C[C@@]12CO[C@@H](c3ccccc3)O[C@H]1CC[C@@]1(C)[C@H]2C[C@H](OC(=O)c2ccc(F)cc2)[C@@]2(C)Oc3cc(-c4cccnc4)oc(=O)c3[C@H](O)[C@H]12",
    "result": 886
  },
  {
    "sample smiles": "C[C@@]12CO[C@@H](c3ccccc3)O[C@H]1CC[C@@]1(C)[C@H]2C[C@H](OC(=O)c2ccccc2F)[C@@]2(C)Oc3cc(-c4cccnc4)oc(=O)c3[C@H](O)[C@H]12",
    "result": 54
  },
  {
    "sample smiles": "C[C@@]12CO[C@@H](c3ccccc3)O[C@H]1CC[C@@]1(C)[C@H]2C[C@H](OC(=O)c2ccc(Cl)cc2)[C@@]2(C)Oc3cc(-c4cccnc4)oc(=O)c3[C@H](O)[C@H]12",
    "result": 644
  }
]

[ask] Need Ratio IC50 of `COc1ccc(C(=O)O[C@H]2C[C@H]3[C@]4(C)CO[C@@H](c5ccccc5)O[C@H]4CC[C@]3(C)[C@H]3[C@@H](O)c4c(cc(-c5cccnc5)oc4=O)O[C@]23C)cc1` , thanks.
[reply] 493

[ask] Lookup `C[C@@]12CO[C@@H](c3ccccc3)O[C@H]1CC[C@@]1(C)[C@H]2C[C@H](OC(=O)c2ccc([N+](=O)[O-])cc2)[C@@]2(C)Oc3cc(-c4cccnc4)oc(=O)c3[C@H](O)[C@H]12`
[reply] 232

[ask] Lookup `C[C@@]12CO[C@@H](c3cccc4ccccc34)O[C@H]1CC[C@@]1(C)[C@H]2C[C@H](OC(=O)c2ccc(C#N)cc2)[C@@]2(C)Oc3cc(-c4cccnc4)oc(=O)c3[C@H](O)[C@H]12`
[reply] > 2980
